Values from ChEMBL document CHEMBL5346910

Consider the following compounds and their measured inhibition readings.
- targetOrSystem: Genome polyprotein (dengue virus type 2)
- measurementProtocol: Inhibition of DENV-2 NS2B-NS3 protease at 50 uM by biochemical enzymatic assay relative to control
resultType: inhibition (%)

[[record]]
structurestring = "CN(C)c1cccc2c(S(=O)(=O)N[C@@H](CCCNC(=N)N)C(=O)N[C@@H](CCCCN)C(=O)N[C@@H](C(N)=O)c3ccccc3)cccc12"
targetorsystem = "Genome polyprotein (dengue virus type 2)"
resulttype = "inhibition"
measurednumber = 35.3

[[record]]
structurestring = "CN([C@@H](Cc1ccc(/C(N)=N/O)cc1)C(=O)N[C@@H](CCCCN)C(=O)N[C@@H](C(N)=O)c1ccccc1)S(=O)(=O)c1ccccc1"
targetorsystem = "Genome polyprotein (dengue virus type 2)"
resulttype = "inhibition"
measurednumber = 58.5

[[record]]
structurestring = "CN([C@@H](CCCNC(=N)N)C(=O)N[C@@H](CCCCN)C(=O)N[C@H](C(N)=O)c1ccccc1)S(=O)(=O)c1ccccc1"
targetorsystem = "Genome polyprotein (dengue virus type 2)"
resulttype = "inhibition"
measurednumber = 75.3

[[record]]
structurestring = "Cc1ccc(S(=O)(=O)N(C)[C@@H](Cc2ccc(NC(=N)N)cc2)C(=O)N[C@@H](CCCCN)C(=O)N[C@@H](C(N)=O)c2ccccc2)cc1"
targetorsystem = "Genome polyprotein (dengue virus type 2)"
resulttype = "inhibition"
measurednumber = 95

[[record]]
structurestring = "N=C(N)Nc1ccc(C[C@H](NS(=O)(=O)c2ccccc2)C(=O)N[C@@H](CCCCN)C(=O)N[C@@H](C(N)=O)c2ccccc2)cc1"
targetorsystem = "Genome polyprotein (dengue virus type 2)"
resulttype = "inhibition"
measurednumber = 52.6

[[record]]
structurestring = "CN([C@@H](Cc1ccc(C(=N)N)cc1)C(=O)N[C@@H](CCCCN)C(=O)N[C@@H](C(N)=O)c1ccc(O)cc1)S(=O)(=O)c1ccccc1"
targetorsystem = "Genome polyprotein (dengue virus type 2)"
resulttype = "inhibition"
measurednumber = 101

[[record]]
structurestring = "CN([C@@H](CCCNC(=N)N)C(=O)N[C@@H](CCCCN)C(=O)N[C@@H](C(N)=O)c1ccccc1)S(=O)(=O)c1ccccc1"
targetorsystem = "Genome polyprotein (dengue virus type 2)"
resulttype = "inhibition"
measurednumber = 80.6

